Hello, the source for this data is PubChem BioAssay, in case you need it.

Please provide measured composite z-score for the entries that follow.
# assay.method.text: small-molecule binders of probe aNOTCH3, primary screen, biochemical, small-molecule microarray, 635/667 nm fluorescence (AID 1120);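 further: probe is a biotin-tagged antibody raised against NOTCH3 rather than NOTCH3 protein; score merges spot fluorescence near 667 nm with spot signal to noise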
# conditions: higher = more signal
Give bare numbers.

Worked cases, composite z-score given:
smiles.text | assay.result
C=C(CCCC)/C(=C/C[C@@H](OC(=O)c1ccncc1)c1ccc(OCCO)cc1)c1cc(C(=O)OC)ccc1OC | -0.0288
CC(C)N1C(=O)C[C@@](C(=O)NCC(F)(F)F)(c2ccc([N+](=O)[O-])cc2)[C@H]1c1ccc(CO)cc1 | -0.0636
COC(=O)C(CC#Cc1ccc2c(c1)[C@]1(C(=O)N2)[C@H](C(=O)Nc2nc3ccccc3s2)[C@H]2C(=O)O[C@H](c3ccccc3)[C@H](c3ccccc3)N2[C@@H]1c1ccccc1OCCO)C(=O)OC | 0.116
COCCOC(=O)N1C(=O)[C@@]2(c3cc(C#Cc4ccc(OC)cc4)ccc31)[C@H](c1ccc(O)cc1)N1[C@H](c3ccccc3)[C@H](c3ccccc3)OC(=O)[C@H]1[C@@H]2C(=O)N1CCc2cc(OC)c(OC)cc2C1 | 0.327

Please find the next molecule below.
[Q] May I ask what composite z-score has been recorded for `CCOC(=O)C1=CC[C@@H](c2ccccc2)N(S(=O)(=O)c2ccc(C)cc2)[C@H]1c1ccccc1C` ?
[A] 0.183

----------
# assay.method.text: fission yeast growth modulation, primary screen, strain 972, OD600, 24 h, no modulator (AID 1090);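 further: basal condition with compound alone and no growth modifier present; test concentration not given here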
# conditions: S. pombe 972 growth, higher = more signal, called active from +8 up or from −8 down
observable: z-score
Give bare numbers.

compound | z-score
COCCOC(=O)N1C(=O)[C@@]2(c3cc(C#CCCO)ccc31)[C@H](C(=O)N1CCCCCCC1)[C@H]1C(=O)O[C@H](c3ccccc3)[C@H](c3ccccc3)N1[C@@H]2c1ccc(OCCO)cc1 | 1.3
CCCCCN1CC=CC23O[C@@H]4C=CCCOC(=O)C4[C@H]2C(=O)N(CCCCCO)[C@@H]3C1=O (stereo partly drawn) | -0.772
COC(=O)[C@H](Cc1ccccc1)N1CC2=C[C@@H](C3CC3)n3c(=O)n(C)c(=O)n3[C@H]2[C@@H]1[C@@H](O)Cc1ccccc1 | -1.15
COCCOC(=O)N1C(=O)[C@@]2(c3ccccc31)[C@H](C(=O)N1CCc3cc(OC)c(OC)cc3C1)[C@H]1C(=O)O[C@H](c3ccccc3)[C@H](c3ccccc3)N1[C@@H]2c1ccc(OCCO)cc1 | 0.476
COc1ccccc1CN1C(=O)c2ccccc2[C@@H](C(=O)NC2CC2)[C@@H]1c1ccc(CO)cc1 | -0.392

I'm hoping you can list z-score for every compound here, please.
1. CCOC(=O)C[C@H]1[C@H](OC(=O)c2ccc(C(=O)c3ccccc3)cc2)[C@@H](NC(=O)c2ccccc2)c2cc(OCCCO)ccc2N1C(=O)Cc1ccc(OC)cc1
2. COc1ccc([Si](C)(C)[C@@H]2[C@@H](CC(=O)N3CCC[C@H]3CO)O[C@]3(C(=O)N(c4ccccc4)c4ccccc43)[C@H]2C)cc1
3. CN(C)CCCC[C@@H]1NC(=O)[C@H]2C[C@@H](C(=O)NCCCCCCN)[C@@H](c3ccc(O)cc3)N2C1=O
4. COc1ccc(/C=C/C=O)cc1
5. COc1ccc([Si](C)(C)[C@H]2[C@H](CCO)O[C@@]3(C(=O)N(Cc4ccc(N(C=O)c5ccccc5)cc4)c4ccccc43)[C@@H]2C)cc1

[A]
1. -0.682
2. -0.589
3. -0.235
4. -7.83
5. 0.302

----------
Please provide measured composite z-score for the entries that follow.
# target.system: Torsin-1A (Homo sapiens) (UniProt O14656)
# Sequence (O14656 whole entry, looked up): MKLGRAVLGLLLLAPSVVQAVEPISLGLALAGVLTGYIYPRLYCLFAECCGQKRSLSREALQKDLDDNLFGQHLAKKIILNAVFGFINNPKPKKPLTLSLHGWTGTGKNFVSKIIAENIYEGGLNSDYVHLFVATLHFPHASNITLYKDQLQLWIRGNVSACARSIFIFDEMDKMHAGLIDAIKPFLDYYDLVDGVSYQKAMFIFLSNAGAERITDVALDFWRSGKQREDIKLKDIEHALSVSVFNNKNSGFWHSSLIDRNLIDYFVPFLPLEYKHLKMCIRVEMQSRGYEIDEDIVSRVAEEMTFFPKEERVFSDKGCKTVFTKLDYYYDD
# assay.method.text: small-molecule binders of mutant TOR1A in lysate, primary screen, cell lysate, small-molecule microarray, COS7 lysate, 635/667 nm fluorescence (AID 1150);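 further: score pools 667 nm emission and signal to noise measuring lysate protein binding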
# conditions: COS7 hTOR1A mutant lysate, 635 nm fluorescence, higher = more signal
Numbers only.

molecule | composite z-score
C=CCOC(=O)[C@H]1[C@@H]2C(=O)O[C@@H](c3ccccc3)[C@@H](c3ccccc3)N2[C@@H](c2ccc(OCCOC(=O)[C@H]3C[C@H]4C(=O)N[C@@H](CCCCN(C)C)C(=O)N4[C@H]3c3ccc(O)cc3)cc2)[C@]12C(=O)Nc1ccc(I)cc12 | 1.33
CC1(C)[C@@H]2CC(C(O)C3C=CC4C(=O)N(c5ccccc5)C(=O)C4N3Nc3ccc([N+](=O)[O-])cc3)=C[C@H]1C2 (stereo not given in full) | 0.537
NCCCCCCNC(=O)[C@@H]1C[C@@H]2C(=O)NCC(=O)N2[C@@H]1c1ccc(O)cc1 | 0.665

I'm hoping you can list composite z-score for every molecule here, please.
1. C=C(CCCC)/C(=C/C[C@H](OC(=O)c1ccncc1)c1ccccc1OCCO)c1cnc2ccccc2c1
2. CC(C)(C)OC(=O)CC[C@]1(C(=O)N2CCOCC2)N=C(c2ccc(OCCCO)cc2)O[C@H]1c1ccccc1N=[N+]=[N-]

[A]
1: 0.712; 2: 1.7

----------
# System: Sonic hedgehog protein (Shh)
# assay.method.text: small-molecule binders of Shh protein, primary screen, biochemical, small-molecule microarray, 635/667 nm fluorescence (AID 1151);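 further: Shh protein binding to compounds spotted on small-molecule microarray slides; score combines spot fluorescence intensity with signal-to-noise across triplicate slides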
# conditions: small-molecule microarray binding, 635 nm fluorescence; higher = more signal
Please provide measured composite z-score for the entries that follow.
Answers are plain numbers.

compound | assay.result
COCCOC(=O)N1C(=O)[C@@]2(c3cc(C#CCNC(N)=O)ccc31)[C@H](C(=O)Nc1nc3ccccc3s1)[C@H]1C(=O)O[C@H](c3ccccc3)[C@H](c3ccccc3)N1[C@@H]2c1ccc(OCCO)cc1 | 0.969
C=CCC(OC(C)=O)[C@@H]1[C@@H](N(Cc2ccc(-c3ccccc3)cc2)C(=O)c2ccc(-c3ccccc3)cc2)c2cc(OCCCO)ccc2N1C(=O)Cc1ccc2ccccc2c1 (stereo not given in full) | 0.523
COC(=O)[C@@]1(Cc2ccc(F)cc2)[C@H]2c3cc(C(=O)N4CCCC4)n(Cc4ccc(S(C)(=O)=O)cc4)c3C[C@H]2CN1C(=O)c1ccccc1 | -0.716
CCCCC(CC)C(O)C1C=CC2C(=O)N(Cc3ccccc3)C(=O)C2N1n1cnnc1 (stereo not given) | -0.405
CC(C)NC(=O)[C@@H]1c2ccccc2C(=O)N(C2Cc3ccccc3C2)[C@H]1c1ccc(CO)cc1 | 0.231
COCCCNC(=O)[C@]1(CCC(=O)OC(C)(C)C)N=C(c2ccc(OCCCO)cc2)O[C@@H]1c1ccccc1CN=[N+]=[N-] | 0.233
CCOC(=O)C[C@H]1[C@H](OC(=O)c2ccc(C(=O)c3ccccc3)cc2)[C@@H](NC(=O)c2ccc3ccccc3c2)c2cc(OCCCO)ccc2N1C(=O)Cc1ccc(OC)cc1 | -0.006
O=C1O[C@@H](c2ccccc2)[C@@H](c2ccccc2)N2[C@@H](c3ccccc3OCCO)[C@]3(C(=O)Nc4ccccc43)[C@@H](C(=O)Nc3nc4ccccc4s3)[C@H]12 | 2.03
Cc1ccc(S[C@]2(C(=O)NCCCN(C)C)CC(=O)N(Cc3cc(C(F)(F)F)cc(C(F)(F)F)c3)[C@@H]2c2ccc(CO)cc2)cc1 | -0.664
C=C[C@@H](COC(=O)OC(C)(C)C)N(Cc1ccc(OC)cc1)S(=O)(=O)c1ccc(Br)cc1 | 1.57

I'm hoping you can list composite z-score for every compound here, please.
1. CC(C)C(O)C1C=CC2C(=O)N(c3ccccc3)C(=O)C2N1Nc1ccc([N+](=O)[O-])cc1 (stereo not given)
2. C=C(COC)/C(=C/C[C@@H](OC(C)=O)c1ccc(OCCO)cc1)c1cnc2ccccc2c1
3. C=C[C@H](CO[Si](CC)(CC)CC)N(Cc1ccc(OC(C)=O)c(OC)c1)S(=O)(=O)c1ccc(Br)cc1

[A]
[-0.688, 1.75, 1.15]

I'm hoping you can list composite z-score for every compound here, please.
1. O=C(N1CCCCC1)[C@]1(Cc2ccccc2)N=C(c2ccc(OCCCO)cc2)O[C@@H]1c1ccccc1
2. C=CCOC(=O)[C@@H]1[C@H]2C(=O)O[C@H](c3ccccc3)[C@H](c3ccccc3)N2[C@H](c2ccc(OCCOC(=O)[C@H]3C[C@H]4C(=O)N5CCC[C@H]5C(=O)N4[C@H]3c3ccc(O)cc3)cc2)[C@@]12C(=O)Nc1ccc(I)cc12

[A]
1. -0.412
2. 2.15

I'm hoping you can list composite z-score for every compound here, please.
1. CCC[C@@H]1C[C@@]1(CCC)[C@@H](NS(=O)(=O)c1cccc2cccnc12)c1ccc(Cl)cc1
2. [N-]=[N+]=Nc1ccccc1[C@H]1OC(c2ccc(OCCCO)cc2)=N[C@@]1(CCS(=O)(=O)c1ccccc1)C(=O)NCC(O)CO (stereo not given in full)
3. COCCCNC(=O)[C@@]1(C)c2ccccc2C(=O)N(C(C)C)[C@H]1c1ccc(CO)cc1
4. COc1ccc(-c2cc3c(c(-c4ccc(Oc5ccccc5)cc4)n2)[Si](C(C)C)(C(C)C)OC3)cn1
5. CC(C)CNC(=O)[C@@]1(Cc2ccccc2I)c2ccccc2C(=O)N(C2CCCCC2)[C@H]1c1ccc(CO)cc1

[A]
1. -1.33
2. -1.02
3. 1.38
4. 1.08
5. 0.187
